Reported pIC50 is given for each of the following binders.
# system.tested: SARS-COV2-S1 RBD (mouse IgG2Fc tag) (SARS-CoV-2, UniProt P0DTC2 319-537)
# assay.text: FACS, blocks S1 RBD-mFc binding to ACE2 on Vero E6
Just the number, please; pIC50 means minus log10 of the concentration in mol/L.

Below are worked cases with known answers.
INSERT INTO measurements (binder, recorded_endpoint, observed) VALUES
  ('variant 6-20 (Fc fusion) VHH: EVQLVESGGGLVQPGGSLRLSCAASGSTLPYHAMGWFRQAPGKEREFVAAITWNGASTSYADSVKGRFTISADNSKNTAYLQMNSLKPEDTAVYYCARDRYYDTSASYFESETWGQGTLVTVSS', 'pIC50', 9.12),
  ('variant 6-60 (Fc fusion) VHH: EVQLVESGGGLVQPGGSLRLSCAASGDTYGSYWMGWFRQAPGKEREFVATISQSGAATAYADSVKGRFTISADNSKNTAYLQMNSLKPEDTAVYYCAGLLRYSGTYYDAFDVWGQGTLVTVSS', 'pIC50', 8.88),
  ('variant 2-5 (antibody, V domains shown) VH: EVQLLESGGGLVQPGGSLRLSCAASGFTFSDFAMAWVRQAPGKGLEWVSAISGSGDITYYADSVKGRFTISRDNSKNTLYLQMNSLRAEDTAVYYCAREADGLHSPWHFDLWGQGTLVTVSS VL: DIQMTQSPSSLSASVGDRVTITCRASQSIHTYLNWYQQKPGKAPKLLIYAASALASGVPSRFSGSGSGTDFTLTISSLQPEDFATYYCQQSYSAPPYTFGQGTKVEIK', 'pIC50', 8.67),
  ('variant 6-55 (Fc fusion) VHH: EVQLVESGGGLVQPGGSLRLSCAASGFTMSSSWMGWFRQAPGKEREFVARITSGGSTGYADSVKGRFTISADNSKNTAYLQMNSLKPEDTAVYYCASVDGYFDYWGQGTLVTVSS', 'pIC50', 9.01),
  ('variant 2-2 (antibody, V domains shown) VH: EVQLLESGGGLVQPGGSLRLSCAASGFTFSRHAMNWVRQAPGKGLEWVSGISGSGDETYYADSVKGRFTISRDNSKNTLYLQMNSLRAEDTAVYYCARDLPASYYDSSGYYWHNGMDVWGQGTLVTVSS VL: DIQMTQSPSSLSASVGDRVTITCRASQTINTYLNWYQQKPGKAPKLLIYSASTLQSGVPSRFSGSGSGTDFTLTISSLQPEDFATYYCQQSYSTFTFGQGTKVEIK', 'pIC50', 9.25),
  ('variant 6-76 (Fc fusion) VHH: EVQLVESGGGLVQPGGSLRLSCAASGLAFDFDGMGWFRQAPGKEREGVAAINSGGSTYYADSVKGRFTISADNSKNTAYLQMNSLKPEDTAVYYCARFFRAHDYWGQGTLVTVSS', 'pIC50', 8.95),
  ('variant 6-78 (Fc fusion) VHH: EVQLVESGGGLVQPGGSLRLSCAASGRTYDAMGWFRQAPGKEREFVASVTSGGYTHYADSVKGRFTISADNSKNTAYLQMNSLKPEDTAVYYCAKFGRKIVGATELDYWGQGTLVTVSS', 'pIC50', 9.13),
  ('variant 6-26 (Fc fusion) VHH: EVQLVESGGGLVQPGGSLRLSCAASGDTFSTSWMGWFRQAPGKEREFVATINTGGGTNYADSVKGRFTISADNSKNTAYLQMNSLKPEDTAVYYCARVTTSFDYWGQGTLVTVSS', 'pIC50', 8.97);

query: Need pIC50 of variant 6-73 (Fc fusion) VHH: EVQLVESGGGLVQPGGSLRLSCAASGHTFSGYAMGWFRQAPGKEREFVAVITREGSTYYADSVKGRFTISADNSKNTAYLQMNSLKPEDTAVYYCARLGGEGFDYWGQGTLVTVSS , thanks.
result: 9.00
